Molecular target: human 5HT2c receptor (VNV Isoform) (Homo sapiens, UniProt P28335, I156V/I160V, form not given)
Sequence (P28335 whole entry I156V/N158S/I160V, form open, canonical isoform): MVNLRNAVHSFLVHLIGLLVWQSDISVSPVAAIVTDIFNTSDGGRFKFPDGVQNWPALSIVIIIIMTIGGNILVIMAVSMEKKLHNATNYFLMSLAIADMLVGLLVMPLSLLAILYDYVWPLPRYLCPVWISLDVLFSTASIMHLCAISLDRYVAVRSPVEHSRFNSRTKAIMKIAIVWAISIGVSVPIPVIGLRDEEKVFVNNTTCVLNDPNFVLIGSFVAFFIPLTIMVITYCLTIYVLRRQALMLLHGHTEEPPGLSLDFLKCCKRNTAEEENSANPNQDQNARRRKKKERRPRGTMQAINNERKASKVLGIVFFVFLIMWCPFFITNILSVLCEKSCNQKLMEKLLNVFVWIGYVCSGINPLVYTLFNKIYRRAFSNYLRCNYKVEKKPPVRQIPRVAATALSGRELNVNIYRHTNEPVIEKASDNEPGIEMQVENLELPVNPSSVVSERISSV
Test: Calcium mobilization (FLIPR) 5HT2c receptor agonist assay in HEK 293 EBNA cells
Type: cell-based
Settings: HEK 293 EBNA cells expressing human 5HT2c receptor, ligand-induced calcium release, read-out: 5-HT2c EC50 (hVSV)
pEC50: −log10 of the molar value.
Record form. Attribute: pEC50. Fill in for each entry.

// field: pEC50; key: Cc1c(Cl)sc2c1CC1CNCC21 (stereo not shown) [Example 17] ; value = > 7.00

// field: pEC50; key: CCOC(=O)c1c(Cl)sc2c1CC1CNCC21 (stereo not shown) [Example 4] ; value = > 7.00

// field: pEC50; key: CCOC(=O)c1c(N)sc2c1CC1CNCC21 (stereo not shown) [Example 1] ; value = > 7.00

// field: pEC50; key: Cc1sc2c(c1Br)C1CNCCC1C2 (single isomer, unassigned) [33, Enantiomer 2] ; value = > 5.00

###

Record form. Attribute: pEC50. Fill in for each entry.
Target: human 5HT2c receptor (VNV Isoform) (Homo sapiens, UniProt P28335, I156V/I160V, form not given)
Assay: Calcium mobilization (FLIPR) 5HT2c receptor agonist assay in HEK 293 EBNA cells
Type: cell-based
Details: HEK 293 EBNA cells expressing human 5HT2c receptor, ligand-induced calcium release, read-out: 5-HT2c EC50 (hVSV)
pEC50: −log10 of the molar value.

// field: pEC50; key: COc1csc2c1CC1CNCC21 (centres unmarked) [Example 20] ; value = > 6.00

// field: pEC50; key: CC1c2sc(I)cc2C2CNCC12 (centres unmarked) [Example 25] ; value = > 6.00

// field: pEC50; key: N#Cc1csc2c1CC1CNCC21 (centres unmarked) [Example 14] ; value = > 6.00

// field: pEC50; key: COC(=O)c1cc2c(s1)C1CNCC1C2 (centres unmarked) [Example 8] ; value = > 5.00

// field: pEC50; key: Cc1c(C(F)(F)F)sc2c1CC1CNCC21 (single isomer, unassigned) [40, Enantiomer 2] ; value = > 7.00

// field: pEC50; key: N#Cc1c(Cl)sc2c1C1CNCC1C2 (centres unmarked) [Example 10] ; value = > 5.00

// field: pEC50; key: COc1c(C(F)(F)F)sc2c1CC1CNCC21 (single isomer, unassigned) [41, Enantiomer 2] ; value = > 7.00

// field: pEC50; key: CCOC(=O)c1c(Br)sc2c1CC1CNCC21 (centres unmarked) [Example 2] ; value = > 7.00

// field: pEC50; key: Brc1cc2c(s1)CC1CNCCC21 (single isomer, unassigned) [28, Enantiomer 1] ; value = > 5.00

// field: pEC50; key: Brc1cc2c(s1)C1CCNCC1C2 (centres unmarked) [Example 31] ; value = > 6.00

// field: pEC50; key: Brc1sc2c(c1Br)C1CNCC1C2 (centres unmarked) [Example 22] ; value = > 7.00

// field: pEC50; key: Cc1c(Cl)sc2c1C(C)C1CNCC21 (single isomer, unassigned) [26, Enantiomer 2] ; value = > 7.00

// field: pEC50; key: Brc1cc2c(s1)C1CNCC1C2 (single isomer, unassigned) [38, Enantiomer 1] ; value = > 7.00

// field: pEC50; key: FC(F)(F)c1sc2c(c1Br)CC1CNCC21 (single isomer, unassigned) [39, Enantiomer 2] ; value = > 7.00

// field: pEC50; key: CCOC(=O)c1csc2c1CC1CNCC21 (centres unmarked) [Example 3] ; value = > 7.00

// field: pEC50; key: Cc1sc2c(c1Br)C(C)C1CNCC21 (single isomer, unassigned) [27, Enantiomer 1] ; value = > 6.00

// field: pEC50; key: CC1c2cc(Br)sc2C2CNCC12 (single isomer, unassigned) [36, Enantiomer 1] ; value = > 6.00

// field: pEC50; key: Brc1csc2c1CC1CNCC21 (single isomer, unassigned) [37, Enantiomer 1] ; value = > 6.00

// field: pEC50; key: N#Cc1c(Br)sc2c1C1CNCC1C2 (centres unmarked) [Example 11] ; value = > 5.00

// field: pEC50; key: N#Cc1c(Cl)sc2c1CC1CNCC21 (centres unmarked) [Example 12] ; value = > 7.00

###

Biological target: human 5HT2c receptor (VNV Isoform) (Homo sapiens, UniProt P28335, I156V/I160V, form not given)
Assay: Calcium mobilization (FLIPR) 5HT2c receptor agonist assay in HEK 293 EBNA cells
Format: cell-based
Settings: read-out: 5-HT2c EC50 (hVSV), HEK 293 EBNA cells expressing human 5HT2c receptor, ligand-induced calcium release
Observation type: EC50

// field: EC50; key: Brc1cc2c(s1)C1CNCCC1C2 (single isomer, unassigned) [30, Enantiomer 2] ; value = > 10 µM

###

Molecular target: human 5HT2c receptor (VNV Isoform) (Homo sapiens, UniProt P28335, I156V/I160V, form not given)
Test: Calcium mobilization (FLIPR) 5HT2c receptor agonist assay in HEK 293 EBNA cells
Type: cell-based
Settings: HEK 293 EBNA cells expressing human 5HT2c receptor, ligand-induced calcium release, read-out: 5-HT2c EC50 (hVSV)
Record form. Attribute: EC50. Fill in for each entry.

// field: EC50; key: Cc1c(Br)sc2c1C1CNCC1CC2 (single isomer, unassigned) [46, Enantiomer 2] ; value = < 1000 nM

// field: EC50; key: CC1c2cc(Br)sc2C2CNCC12 (single isomer, unassigned) [36, Enantiomer 2] ; value = < 10000 nM

// field: EC50; key: CC1c2sc(Cl)cc2C2CNCC12 (stereo not shown) ; value = < 1000 nM

// field: EC50; key: Nc1sc2c(c1C(=O)c1cccc(C(F)(F)F)c1)CC1CNCC21 (stereo not shown) ; value = < 10000 nM

// field: EC50; key: COc1c(Cl)sc2c1CC1CNCC21 (single isomer, unassigned) [42, Enantiomer 2] ; value = < 10000 nM

// field: EC50; key: c1ccc2c3c(sc2c1)C1CNCC1C3 (single isomer, unassigned) [45, Enantiomer 2] ; value = < 1000 nM

// field: EC50; key: CC(C)(C)C(=O)c1sc2c(c1Br)CC1CNCC21 (single isomer, unassigned) [43, Enantiomer 2] ; value = < 1000 nM

// field: EC50; key: Cc1ccc(C(=O)c2c(N)sc3c2CC2CNCC32)cc1 (stereo not shown) ; value = < 1000 nM

// field: EC50; key: FC(F)(F)c1csc2c1C1CNCC1C2 (stereo not shown) ; value = < 1000 nM

// field: EC50; key: Brc1sc2c(c1Br)CC1CNCC21 (stereo not shown) ; value = < 1000 nM

// field: EC50; key: N#Cc1c(Br)sc2c1CC1CNCC21 (stereo not shown) ; value = < 100 nM

// field: EC50; key: CC1c2sccc2C2CNCC12 (single isomer, unassigned) [34, Enantiomer 1] ; value = < 10000 nM

// field: EC50; key: Cc1sc2c(c1Br)C1CNCCC1C2 (single isomer, unassigned) [33, Enantiomer 1] ; value = < 1000 nM

// field: EC50; key: Cc1sc2c(c1Cl)CC1CNCC21 (stereo not shown) ; value = < 100 nM

// field: EC50; key: Cc1sc2c(c1Br)C(C)C1CNCC21 (single isomer, unassigned) [27, Enantiomer 2] ; value = < 100 nM

// field: EC50; key: Nc1sc2c(c1C(=O)c1ccc(Cl)cc1)CC1CNCC21 (stereo not shown) ; value = < 10000 nM

// field: EC50; key: Brc1cc2c(s1)CC1CCNCC21 (single isomer, unassigned) [29, Enantiomer 2] ; value = < 10000 nM

// field: EC50; key: Brc1cc2c(s1)CC1CNCC21 (stereo not shown) ; value = < 100 nM

// field: EC50; key: c1cc2c(s1)C1CNCC1C2 (stereo not shown) ; value = > 10000 nM
